Experiment Description: Local concentrations of penicillin in saliva after penicillin G potassium 50 mg tablet (Example IX)
Format: in vivo, human
Condition Summary: human, saliva, topical or ocular; 50 mg tablet, 6 min

Molecule	concentration at 0.1 h
CC1(C)S[C@@H]2[C@H](NC(=O)Cc3ccccc3)C(=O)N2[C@H]1C(=O)O [penicillin G potassium]	240000 to 480000 µg/mL

* * *

Experiment Description: Local concentrations of penicillin in saliva after topical medication of various doses (Example VII)
Type: in vivo, human
Condition Summary: human, in vivo, topical or ocular, 2 mg topical powder, 40 min; studies 1-3
Description: Five healthy adult volunteers, three men and two women, were selected for this study. The same volunteers were used as the subjects for three studies, and the results are summarized as follows. On the day of study, two hours after breakfast, the volunteers were given a dose of 100 mg, 50 mg, 20 mg, 10 mg and 2 mg of USP grade penicillin G potassium powder respectively. […]

Query Smiles	Scale Unit	concentration at 40 min
CC1(C)S[C@@H]2[C@H](NC(=O)Cc3ccccc3)C(=O)N2[C@H]1C(=O)O	µg/mL	3750

* * *

Experiment Description: Local concentrations of penicillin in saliva after topical medication of various doses (Example VII)
Type: in vivo, human
Condition Summary: human, in vivo, topical or ocular, 50 mg topical powder, 6 min; studies 1-3
Measured Parameter: concentration at 0.1 h (µg/mL)

Query Smiles	Measured Parameter	Scale Unit	Test Result
CC1(C)S[C@@H]2[C@H](NC(=O)Cc3ccccc3)C(=O)N2[C@H]1C(=O)O	concentration at 0.1 h	µg/mL	480000

* * *

Experiment Description: Local concentrations of penicillin in saliva after topical medication of various doses (Example VII)
Assay type: in vivo, human
Condition Summary: human, in vivo, topical or ocular, 20 mg topical powder, 20 min; studies 1-3
Measured Parameter: concentration at 20 min (µg/mL)

Query Smiles	Measured Parameter	Test Result
CC1(C)S[C@@H]2[C@H](NC(=O)Cc3ccccc3)C(=O)N2[C@H]1C(=O)O	concentration at 20 min	60000

* * *

Experiment Description: Local concentrations of penicillin in saliva after topical medication of various doses (Example VII)
Type: in vivo, human
Condition Summary: human, in vivo, topical or ocular, 10 mg topical powder, 40 min; studies 1-3
Measured Parameter: concentration at 40 min (µg/mL)

Query Smiles	Scale Unit	Test Result
CC1(C)S[C@@H]2[C@H](NC(=O)Cc3ccccc3)C(=O)N2[C@H]1C(=O)O	µg/mL	15000

* * *

Experiment Description: Local concentrations of penicillin in saliva after topical medication of various doses (Example VII)
Assay type: in vivo, human
Condition Summary: human, in vivo, topical or ocular, 10 mg topical powder, 20 min; studies 1-3

Query Smiles	Scale Unit	concentration at 20 min
CC1(C)S[C@@H]2[C@H](NC(=O)Cc3ccccc3)C(=O)N2[C@H]1C(=O)O	µg/mL	30000

* * *

Experiment Description: Local concentrations of penicillin in saliva after topical medication of various doses (Example VII)
Assay type: in vivo, human
Condition Summary: human, in vivo, topical or ocular, 20 mg topical powder, 60 min; studies 1-3

Query Smiles	concentration at 1 h / µg/mL
CC1(C)S[C@@H]2[C@H](NC(=O)Cc3ccccc3)C(=O)N2[C@H]1C(=O)O	7500

* * *

Experiment Description: Local concentration of penicillin in saliva after a troche containing 50 mg penicillin G
Format: in vivo, human
Condition Summary: human, saliva, 50 mg, 50 mg troche, end of one hour; read-out: local trough concentration in saliva

Query Smiles	concentration at 1 h
CC1(C)S[C@@H]2[C@H](NC(=O)Cc3ccccc3)C(=O)N2[C@H]1C(=O)O	~7500 µg/mL
